A collection of compounds and their measured inhibition at 4 µM
target: ATX (autotaxin) (Homo sapiens); construct: purchased Cayman 10803; assay: Autotaxin Inhibition Screening Assay (choline release from LPC, LPC-CR); format: biochemical; settings: 4 μM compound
parameter.measured: inhibition at 4 µM

{"columns": ["compound", "parameter.measured", "experimental.value"],
 "data": [
  ["O=C(CCCCCNC(=O)c1ccc2c(c1)CC/C(=C\\c1cc(C(F)(F)F)cc(C(F)(F)F)c1)C2=O)NO", "inhibition at 4 µM", "> 80%"],
  ["Nc1cc(F)ccc1NC(=O)/C=C/c1ccc(COc2ccc3c(c2)CC/C(=C\\c2cc(C(F)(F)F)cc(C(F)(F)F)c2)C3=O)cc1", "inhibition at 4 µM", "< 50%"],
  ["Nc1cc(F)ccc1NC(=O)CCCCC(=O)Nc1ccc2c(c1)CC/C(=C\\c1cc(C(F)(F)F)cc(C(F)(F)F)c1)C2=O", "inhibition at 4 µM", "50 to 80%"],
  ["Nc1cc(F)ccc1NC(=O)/C=C/c1ccc2c(c1)CC/C(=C\\c1cc(C(F)(F)F)cc(C(F)(F)F)c1)C2=O", "inhibition at 4 µM", "50 to 80%"],
  ["COc1ccc(S(=O)(=O)NC2CCc3cc(/C=C/C(=O)Nc4ccc(F)cc4N)ccc32)cc1 (stereo not drawn)", "inhibition at 4 µM", "< 50%"],
  ["Nc1cc(F)ccc1NC(=O)c1ccc(COc2ccc3c(c2)CC(Cc2cc(C(F)(F)F)cc(C(F)(F)F)c2)C3=O)cc1 (stereo not drawn)", "inhibition at 4 µM", "< 50%"],
  ["Nc1cc(F)ccc1NC(=O)c1ccc(COc2ccc3c(c2)CCC(Cc2cc(C(F)(F)F)cc(C(F)(F)F)c2)C3=O)cc1 (stereo not drawn)", "inhibition at 4 µM", "< 50%"],
  ["Nc1cc(F)ccc1NC(=O)CCCCNC(=O)c1ccc2c(c1)CC/C(=C\\c1cc(C(F)(F)F)cc(C(F)(F)F)c1)C2=O", "inhibition at 4 µM", "< 50%"],
  ["Cc1[nH]c2ccccc2c1CCNC1CCc2cc(/C=C/C(=O)NO)ccc21 (stereo not drawn)", "inhibition at 4 µM", "< 50%"],
  ["O=C(/C=C/c1ccc2c(c1)CCC2N1CC(=O)N(c2cc(Cl)cc(Cl)c2)C1=O)NO (stereo not drawn)", "inhibition at 4 µM", "< 50%"],
  ["O=C(/C=C/c1ccc2c(c1)CCC2NCCc1cc(C(F)(F)F)cc(C(F)(F)F)c1)NO (stereo not drawn)", "inhibition at 4 µM", "< 50%"],
  ["COc1ccc(CCNC2CCc3cc(/C=C/C(=O)NO)ccc32)cc1 (stereo not drawn)", "inhibition at 4 µM", "< 50%"],
  ["O=C(/C=C/c1ccc2c(c1)CCC2NC(=O)c1cc(C(F)(F)F)cc(C(F)(F)F)c1)NO (stereo not drawn)", "inhibition at 4 µM", "< 50%"],
  ["O=C(NO)c1ccc(COc2ccc3c(c2)CCC(Cc2cc(C(F)(F)F)cc(C(F)(F)F)c2)C3=O)cc1 (stereo not drawn)", "inhibition at 4 µM", "< 50%"],
  ["O=C(CCCCCNC(=O)COc1ccc2c(c1)CC/C(=C\\c1cc(C(F)(F)F)cc(C(F)(F)F)c1)C2=O)NO", "inhibition at 4 µM", "> 80%"],
  ["Nc1cc(F)ccc1NC(=O)/C=C/c1ccc2c(c1)CCCC2OCc1cc(C(F)(F)F)cc(C(F)(F)F)c1 (stereo not drawn)", "inhibition at 4 µM", "< 50%"],
  ["Nc1cc(F)ccc1NC(=O)CCCCCCC(=O)Nc1ccc2c(c1)CCC(Cc1cc(C(F)(F)F)cc(C(F)(F)F)c1)C2=O (stereo not drawn)", "inhibition at 4 µM", "< 50%"],
  ["O=C(/C=C/c1ccc2c(c1)CCC2NCc1cc(C(F)(F)F)cc(C(F)(F)F)c1)NO (stereo not drawn)", "inhibition at 4 µM", "< 50%"],
  ["O=C(CCCCCC(=O)Nc1ccc2c(c1)CC/C(=C\\c1cc(C(F)(F)F)cc(C(F)(F)F)c1)C2=O)NO", "inhibition at 4 µM", "> 80%"],
  ["O=C(NO)c1ccc(COc2ccc3c(c2)CC(Cc2cc(C(F)(F)F)cc(C(F)(F)F)c2)C3=O)cc1 (stereo not drawn)", "inhibition at 4 µM", "> 80%"],
  ["O=C(CCCCCCC(=O)Nc1ccc2c(c1)CCCC2O)NO (stereo not drawn)", "inhibition at 4 µM", "< 50%"],
  ["COc1ccc2c(c1)CCC2NC(=O)CCCCCCC(=O)Nc1ccc(F)cc1N (stereo not drawn)", "inhibition at 4 µM", "< 50%"],
  ["Nc1cc(F)ccc1NC(=O)/C=C/c1ccc(COc2ccc3c(c2)CCCC3=O)cc1", "inhibition at 4 µM", "< 50%"],
  ["O=C(/C=C/c1ccc(CNC(=O)COc2ccc3c(c2)CC/C(=C\\c2cc(C(F)(F)F)cc(C(F)(F)F)c2)C3=O)cc1)NO", "inhibition at 4 µM", "50 to 80%"],
  ["O=C(CCCCCCC(=O)Nc1ccc2c(c1)CCCC2=O)NO", "inhibition at 4 µM", "< 50%"],
  ["Cc1[nH]c2ccccc2c1CCNC1CCCc2cc(/C=C/C(=O)Nc3ccc(F)cc3N)ccc21 (stereo not drawn)", "inhibition at 4 µM", "< 50%"],
  ["O=C(CCCCNC(=O)c1ccc2c(c1)CC/C(=C\\c1cc(C(F)(F)F)cc(C(F)(F)F)c1)C2=O)NO", "inhibition at 4 µM", "> 80%"],
  ["Cc1[nH]c2ccccc2c1CCNC1CCc2cc(/C=C/C(=O)Nc3ccc(F)cc3N)ccc21 (stereo not drawn)", "inhibition at 4 µM", "< 50%"],
  ["O=C(/C=C/c1ccc2c(c1)CCC2NC(=O)OCc1cc(C(F)(F)F)cc(C(F)(F)F)c1)NO (stereo not drawn)", "inhibition at 4 µM", "< 50%"],
  ["O=C(/C=C/c1ccc2c(c1)CCC2NC(=O)c1ccc(F)cc1)NCCCCCC(=O)NO (stereo not drawn)", "inhibition at 4 µM", "< 50%"]
]}
